Parameter MBC: see the listing below.
- System: Bacillus subtilis
- test-summary: Antimicrobial activity against 10^4 CFU/ml Bacillus subtilis ATCC 6633 after 22 hrs by serial microdilution method
- Assay type: functional
- reported-conditions: ATCC 6633, 22 h
assay-endpoint: MBC (µg/mL)

In [3]: df
Out[3]:
                                   compound  measurement_units  readout_qualifier  measured
0  CCCCCCCCC[N+]12CC[N+](CCCCC[N+]34CC[N+](CCCCCCCCC)(CC3)CC4)(CC1)CC2.[Br-].[Br-].[Br-].[Br-]              µg/mL                  =       6.3
1  CCCCCCCCCC[N+]12CC[N+](CCCCC[N+]34CC[N+](CCCCCCCCCC)(CC3)CC4)(CC1)CC2.[Br-].[Br-].[Br-].[Br-]              µg/mL                  <       1.6
2  CCCCCCCCCCCC[N+]12CC[N+](CCCCC[N+]34CC[N+](CCCCCCCCCCCC)(CC3)CC4)(CC1)CC2.[Br-].[Br-].[Cl-].[Cl-]              µg/mL                  <       1.6
3  CCCCCCCC[N+]12CC[N+](CCCCC[N+]34CC[N+](CCCCCCCC)(CC3)CC4)(CC1)CC2.[Br-].[Br-].[Br-].[Br-]              µg/mL                  =        50
4  CCCCCCCCCCCCCC[N+]12CC[N+](CCCCC[N+]34CC[N+](CCCCCCCCCCCCCC)(CC3)CC4)(CC1)CC2.[Br-].[Br-].[Br-].[Br-]              µg/mL                  =      12.5
5  O=C(O)c1cn(C2CC2)c2cc(N3CCNCC3)c(F)cc2c1=O [CIPROFLOXACIN]              µg/mL                  <       0.8
